The reported numbers originate from patent US12466781B2.

Entries and their EC50 values follow.
- target.system: TRα (Homo sapiens, UniProt P10827)
- Construct: expressed in transfected cells; host or cells: HEK293
- Sequence (P10827 163-410 isoform P10827-2 limits assumed): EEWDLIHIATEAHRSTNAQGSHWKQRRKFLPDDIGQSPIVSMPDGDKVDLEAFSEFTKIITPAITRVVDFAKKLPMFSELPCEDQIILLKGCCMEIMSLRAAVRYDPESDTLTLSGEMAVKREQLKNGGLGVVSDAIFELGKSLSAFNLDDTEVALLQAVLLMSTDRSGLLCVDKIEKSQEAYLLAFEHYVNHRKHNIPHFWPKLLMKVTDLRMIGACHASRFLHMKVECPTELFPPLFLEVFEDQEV
- measurement.protocol: Thyroid-hormone reporter-gene assay (TRα-Gal4 hybrid, luciferase, HEK293)
- Assay type: cell-based
- test.parameters: reporter cells, 24 hr incubation; Table 2; read-out: TRα (EC50)
- Experimental: Compounds were tested for thyroid-hormone receptor activity using TR reporter-gene assays. Reporter cells used in the assays express a TR-receptor hybrid (either TRα or TRβ) in which the native N-terminal DNA binding domain (DBD) has been replaced with that of the yeast Gal4 DBD. […] Step 4: At the 24 h assay endpoint, treatment media were discarded and 100 μl/well of luciferase detection reagent was added. Relative luminometer units (RLUs) were quantified from each assay well.
measured.parameter: EC50

# line.notation, measured.parameter, measurement
rows = [
    ("CNC(=O)COc1cc(C)c(Cc2ccc(O)c(C(C)C)c2)c(F)c1F", "EC50", "10 to 100 nM"),
    ("Cc1cc(OCC(=O)O)cc(Cl)c1Cc1ccc(O)c(C(C)C)c1F", "EC50", "10 to 100 nM"),
    ("CON(C)C(=O)COc1cc(Cl)c(Cc2ccc(O)c(C(C)C)c2F)c(Cl)c1", "EC50", "10 to 100 nM"),
    ("O=C(O)COc1cc(Cl)c(Cc2ccc(O)c(Cc3ccc(F)cc3)c2F)c(Cl)c1F", "EC50", "10 to 100 nM"),
    ("C=Cc1cc(OCC(=O)O)c(F)c(Cl)c1Cc1ccc(O)c(C(C)C)c1", "EC50", "100 to 1000 nM"),
    ("CCc1cc(OCC(=O)O)c(F)c(Cl)c1Cc1ccc(O)c(C(C)C)c1", "EC50", "10 to 100 nM"),
    ("C=Cc1c(F)c(OCC(=O)O)cc(Cl)c1Cc1ccc(O)c(C(C)C)c1", "EC50", "100 to 1000 nM"),
]

---

- target.system: TRβ (Homo sapiens, UniProt P10828)
- Construct: expressed in transfected cells; host or cells: HEK293
- Sequence (P10828 217-461 limits assumed): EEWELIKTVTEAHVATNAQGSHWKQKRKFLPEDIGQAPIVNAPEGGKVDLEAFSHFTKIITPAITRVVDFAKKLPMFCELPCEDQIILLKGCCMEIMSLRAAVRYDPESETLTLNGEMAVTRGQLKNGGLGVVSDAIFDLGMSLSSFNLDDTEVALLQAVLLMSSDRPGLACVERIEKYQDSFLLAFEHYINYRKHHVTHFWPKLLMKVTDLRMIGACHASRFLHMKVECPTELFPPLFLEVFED
- measurement.protocol: Thyroid-hormone reporter-gene assay (TRβ-Gal4 hybrid, luciferase, HEK293)
- Assay type: cell-based
- test.parameters: reporter cells, 24 hr incubation; Table 2; read-out: TRβ (EC50)
Entries and their EC50 values follow.
measured.parameter: EC50

# compound, measurement
data = [
    ("Cc1cc(OCC(=O)O)c(F)c(Cl)c1Cc1ccc(O)c(C(C)C)c1 [Compound 115]", "10 to 100 nM"),
    ("CCc1cc(OCC(=O)O)cc(C)c1Cc1ccc(O)c(C(C)C)c1F [Compound 9]", "10 to 100 nM"),
    ("CCOC(=O)COc1cc(F)c(Cc2ccc(O)c(C(C)C)c2)c(Cl)c1F [Compound 147]", "100 to 1000 nM"),
    ("CCOC(=O)COc1cc(Cl)c(Cc2ccc(O)c(C(C)C)c2)c(Cl)c1OC [Compound 165]", "100 to 1000 nM"),
    ("Cc1cc(OCC(=O)O)cc(C)c1Cc1ccc(O)c(-c2cccc(OC(F)F)c2)c1F [Compound 3]", "100 to 1000 nM"),
    ("C=C(C)c1c(F)c(OCC(=O)O)cc(Cl)c1Cc1ccc(O)c(C(C)C)c1F [Compound 121]", "100 to 1000 nM"),
    ("CC(C)c1c(O)ccc(Cc2c(Cl)cc(OCC(=O)O)c(F)c2Cl)c1F [Compound 97]", "< 10 nM"),
    ("Cc1c(F)c(OCC(=O)O)cc(Cl)c1Cc1ccc(O)c(C(C)C)c1 [Compound 118]", "10 to 100 nM"),
    ("COc1c(Cc2c(Cl)cc(OCC(=O)O)cc2Cl)ccc(O)c1C(C)C [Compound 54]", "100 to 1000 nM"),
    ("C=Cc1cc(OCC(=O)O)c(F)c(Cl)c1Cc1ccc(O)c(C(C)C)c1 [Compound 75]", "10 to 100 nM"),
    ("CC(C)c1c(O)ccc(Cc2c(Cl)cc(OCC(=O)O)cc2Br)c1F [Compound 40]", "< 10 nM"),
    ("Cc1cc(OCC(=O)O)cc(C)c1Cc1ccc(O)c(C(C)c2ccc(F)cc2)c1F (centres unmarked) [Compound 6]", "< 10 nM"),
    ("CNC(=O)COc1cc(C)c(Cc2ccc(O)c(C(C)C)c2)c(F)c1F [Compound 133]", "10 to 100 nM"),
    ("CC(C)c1cc(Cc2c(Cl)cc(OCC(=O)O)c(Cl)c2Cl)ccc1O [Compound 89]", "10 to 100 nM"),
    ("CC(c1ccc(F)cc1)c1c(O)ccc(Cc2c(Cl)cc(OCC(=O)O)c(F)c2Cl)c1F (centres unmarked) [Compound 107]", "10 to 100 nM"),
    ("CNC(=O)COc1cc(Cl)c(Cc2ccc(O)c(C(C)C)c2)c(Cl)c1OC [Compound 167]", "10 to 100 nM"),
    ("O=C(O)COc1cc(Cl)c(Cc2ccc(O)c(Cc3ccc(F)cc3)c2)c(Cl)c1F [Compound 83]", "10 to 100 nM"),
    ("CC(C)c1cc(Cc2c(Cl)cc(OCC(=O)O)c(F)c2C(C)C)ccc1O [Compound 73]", "100 to 1000 nM"),
    ("O=C(O)COc1cc(Cl)c(Cc2ccc(O)c(Cc3ccc(F)cc3)c2F)c(Cl)c1F [Compound 103]", "10 to 100 nM"),
    ("O=C(O)COc1cc(Cl)c(Cc2ccc(O)c(-c3cccc(OC(F)F)c3)c2F)c(Cl)c1 [Compound 24]", "10 to 100 nM"),
    ("CCCC(c1ccc(F)cc1)c1c(O)ccc(Cc2c(Cl)cc(OCC(=O)O)cc2Cl)c1F (centres unmarked) [Compound 34]", "100 to 1000 nM"),
    ("CC(C)c1c(O)ccc(Cc2c(Cl)cc(OCC(=O)O)cc2Cl)c1Cl [Compound 49]", "10 to 100 nM"),
    ("O=C(O)COc1cc(Cl)c(Cc2ccc(O)c(-c3cc(C(F)(F)F)ccc3F)c2F)c(Cl)c1 [Compound 25]", "< 10 nM"),
    ("CCc1c(F)c(OCC(=O)O)cc(Cl)c1Cc1ccc(O)c(C(C)C)c1 [Compound 69]", "100 to 1000 nM"),
    ("CON(C)C(=O)COc1cc(Cl)c(Cc2ccc(O)c(C(C)C)c2F)c(Cl)c1 [Compound 22]", "10 to 100 nM"),
    ("C=C(C)c1cc(OCC(=O)O)cc(Cl)c1Cc1ccc(O)c(C(C)C)c1F [Compound 46]", "< 10 nM"),
    ("CCCC(c1ccc(F)cc1)c1cc(Cc2c(Cl)cc(OCC(=O)O)c(F)c2Cl)ccc1O (centres unmarked) [Compound 85]", "100 to 1000 nM"),
    ("CCc1cc(OCC(=O)O)c(F)c(Cl)c1Cc1ccc(O)c(C(C)C)c1 [Compound 77]", "10 to 100 nM"),
    ("O=C(O)COc1cc(Cl)c(Cc2ccc(O)c(-c3cc(OC(F)F)ccc3F)c2F)c(Cl)c1F [Compound 101]", "100 to 1000 nM"),
    ("Cc1cc(OCC(=O)O)c(F)c(Cl)c1Cc1ccc(O)c(C(C)C)c1F [Compound 109]", "< 10 nM"),
    ("O=C(O)COc1cc(Cl)c(Cc2ccc(O)c(Cc3ccc(F)cc3)c2F)c(Cl)c1 [Compound 28]", "10 to 100 nM"),
    ("Cc1cc(OCC(=O)O)cc(C(C)C)c1Cc1ccc(O)c(C(C)C)c1F [Compound 13]", "< 10 nM"),
]
